- TARGET OF ASSAY: KRas G12V (Homo sapiens, UniProt P01116, G12V)
- Sequence (P01116 1-169 isoform P01116-2 G12V): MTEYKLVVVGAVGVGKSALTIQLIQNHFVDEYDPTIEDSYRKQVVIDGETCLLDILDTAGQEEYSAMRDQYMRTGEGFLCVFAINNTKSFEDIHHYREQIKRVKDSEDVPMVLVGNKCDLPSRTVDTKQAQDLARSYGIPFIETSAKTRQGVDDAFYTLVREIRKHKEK
- PROCEDURE SUMMARY: biochemical
- PARTICULARS: Binding to KRas (IC50 nM) G12V, TR-FRET displacement, KRas G12V
MEASURE: IC50

Look at this molecule and give its reported IC50. C[C@@H]1C[C@@H]1c1c(Cl)cc(O)cc1N1CCc2c(nc(OC[C@@]34CCCN3C[C@H](F)C4)nc2N2CCCn3nc(C(=O)N(C)C)cc3C2)C1 (stereo in doubt)
< 2 nM

Look at this molecule and give its reported IC50. CCc1c(F)ccc2cc(O)cc(N3CCc4c(nc(OC[C@@]56CCCN5C[C@H](F)C6)nc4N4CCCCn5nc(C(=O)N(C)C)c(Br)c5C4)C3)c12
< 2 nM

Look at this molecule and give its reported IC50. CCc1c(F)ccc2cc(O)cc(N3CCc4c(nc(OC[C@@]56CCCN5C[C@H](F)C6)nc4N4CCCn5nc(C(=O)N(C)CCOC)cc5C4)C3)c12
< 2 nM

Look at this molecule and give its reported IC50. CN(C)C(=O)c1cc2n(n1)CCCN(c1nc(OC[C@@]34CCCN3C[C@H](F)C4)nc3c1CCN(c1cccc4cccc(Cl)c14)C3)C2
20 nM

Look at this molecule and give its reported IC50. CCc1cccc2cccc(N3CCc4c(nc(OCC5(CN(C)C)CC5)nc4NCc4c(C)nnn4CC)C3)c12
1790 nM

Look at this molecule and give its reported IC50. CCc1c(F)ccc2cc(O)cc(N3CCc4c(nc(OC[C@@]56CCCN5C[C@H](F)C6)nc4N4CCCOCC4)C3)c12
< 2 nM

Look at this molecule and give its reported IC50. CCc1cccc2cccc(N3CCc4c(nc(OCC5(CN(C)C)CC5)nc4NCC4(NC(=O)OC(C)(C)C)CCOC4)C3)c12 (centres unmarked)
7840 nM

Look at this molecule and give its reported IC50. CCc1c(F)ccc2cc(O)cc(N3CCc4c(nc(OCC56CCCN5C/C(=C\F)C6)nc4N4CCC[C@]5(C4)NC(=O)NC5=O)C3)c12 (some centres unmarked)
< 2 nM

----------
- TARGET OF ASSAY: KRas Q61H (Homo sapiens, UniProt P01116, Q61H)
- Sequence (P01116 1-169 isoform P01116-2 Q61H): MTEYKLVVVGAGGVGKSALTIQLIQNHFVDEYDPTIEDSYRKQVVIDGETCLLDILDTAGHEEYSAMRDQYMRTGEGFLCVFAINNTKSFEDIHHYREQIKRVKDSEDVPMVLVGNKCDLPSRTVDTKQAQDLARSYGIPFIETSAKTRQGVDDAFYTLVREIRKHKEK
- PROCEDURE SUMMARY: KRas binding assay (TR-FRET displacement), KRas Q61H
- PARTICULARS: TR-FRET displacement
Field: IC50. Provide a value for each of the molecules that follow.
Respond with the bare value in nM.

Look at this molecule and give its reported IC50. CCc1cccc2cccc(N3CCc4c(nc(OCC5(CN(C)C)CC5)nc4N4Cc5cn[nH]c5CC(C)C4)C3)c12 (centres unmarked)
14600

Look at this molecule and give its reported IC50. Cc1cc2[nH]ncc2c(N2CCc3c(nc(OCC45CCCN4CCC5)nc3N3CCCC4(CC(O)C4)C3)C2)c1C (single isomer, unassigned; isomer 1)
1150

Look at this molecule and give its reported IC50. CCc1cccc2cccc(N3CCc4c(nc(OCC5(CN(C)C)CC5)nc4NCc4cnc(C)nc4N)C3)c12
14100

Look at this molecule and give its reported IC50. Cc1cc2[nH]ncc2c(N2CCc3c(nc(OCC45CCCN4CCC5)nc3N3CCCC4(C3)NC(=O)NC4=O)C2)c1C (centres unmarked)
8

Look at this molecule and give its reported IC50. CCc1cccc2cccc(N3CCc4c(nc(OCC5(CN(C)C)CC5)nc4N4CCCC(c5nnc[nH]5)C4)C3)c12 (centres unmarked)
389

Look at this molecule and give its reported IC50. CCc1cccc2cccc(N3CCc4c(nc(OCC5(CN(C)C)CC5)nc4N4CC(CO)OC(C(F)(F)F)C4)C3)c12 (centres unmarked)
7730

Source listed as patent US20250368649A1.
